- Target or system: Ba/F3-TPR-MET-D1228N cells (Homo sapiens, UniProt P08581, D1228N, cells depend on it)
- Construct: fused on or other part: P12270 (Nucleoprotein TPR)
- Sequence (P08581 whole entry D1228N, the tested form may be a part): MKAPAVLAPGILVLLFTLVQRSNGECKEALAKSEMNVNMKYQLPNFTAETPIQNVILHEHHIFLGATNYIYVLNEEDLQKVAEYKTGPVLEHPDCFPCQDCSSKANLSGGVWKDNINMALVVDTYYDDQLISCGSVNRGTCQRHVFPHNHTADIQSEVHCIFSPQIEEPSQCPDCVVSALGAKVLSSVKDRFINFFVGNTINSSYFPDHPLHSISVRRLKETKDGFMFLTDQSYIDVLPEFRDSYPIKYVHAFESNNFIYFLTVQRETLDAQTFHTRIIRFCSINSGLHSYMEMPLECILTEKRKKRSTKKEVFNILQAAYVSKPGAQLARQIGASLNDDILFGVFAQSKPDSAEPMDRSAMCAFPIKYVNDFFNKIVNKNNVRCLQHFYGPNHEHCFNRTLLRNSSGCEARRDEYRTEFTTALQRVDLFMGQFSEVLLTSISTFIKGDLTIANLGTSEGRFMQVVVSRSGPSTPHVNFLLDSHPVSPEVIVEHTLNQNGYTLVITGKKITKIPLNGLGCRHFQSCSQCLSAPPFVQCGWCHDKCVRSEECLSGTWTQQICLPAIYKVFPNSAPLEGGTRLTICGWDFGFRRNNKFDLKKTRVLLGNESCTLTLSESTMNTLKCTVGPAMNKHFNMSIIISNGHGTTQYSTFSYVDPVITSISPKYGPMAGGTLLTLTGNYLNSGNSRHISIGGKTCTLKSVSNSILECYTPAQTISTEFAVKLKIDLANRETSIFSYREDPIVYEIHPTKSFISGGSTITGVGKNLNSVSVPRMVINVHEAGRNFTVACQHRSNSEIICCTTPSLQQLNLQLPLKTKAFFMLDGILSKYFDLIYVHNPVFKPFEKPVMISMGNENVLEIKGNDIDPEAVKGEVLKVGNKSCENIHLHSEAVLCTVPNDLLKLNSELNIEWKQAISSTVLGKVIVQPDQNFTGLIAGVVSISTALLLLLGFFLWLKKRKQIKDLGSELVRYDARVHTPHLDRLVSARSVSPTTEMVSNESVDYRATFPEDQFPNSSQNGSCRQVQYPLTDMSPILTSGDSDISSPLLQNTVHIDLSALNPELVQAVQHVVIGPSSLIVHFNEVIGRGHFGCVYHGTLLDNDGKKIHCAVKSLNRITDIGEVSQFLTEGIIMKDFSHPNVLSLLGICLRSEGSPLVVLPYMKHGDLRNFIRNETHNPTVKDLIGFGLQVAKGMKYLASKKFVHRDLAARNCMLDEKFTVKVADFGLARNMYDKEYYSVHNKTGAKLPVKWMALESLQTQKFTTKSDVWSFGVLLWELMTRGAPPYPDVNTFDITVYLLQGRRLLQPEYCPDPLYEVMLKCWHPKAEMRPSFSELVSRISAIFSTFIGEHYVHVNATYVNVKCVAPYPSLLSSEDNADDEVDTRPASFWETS
- Assay summary: CellTiter-Glo Cell Viability Assay, Ba/F3-TPR-MET-D1228N
- Condition info: 72 hours
pEC50: −log10 of the molar value.
For each record, write down the corresponding pEC50.

Task: Look up pEC50: COc1cc2c(Oc3c(F)cc(NC(=O)c4nnccc4OC4CC4)cc3F)ccnc2cc1OCCO
Result: ≥ 7.00

Task: Please give the measured pEC50 for this compound: COCCOc1cc2nccc(Oc3c(F)cc(NC(=O)c4cnccc4OC4CC4)cc3F)c2nc1OC
Result: ≥ 7.00

Task: Data request, read-out pEC50, for CNCCOc1cc2nccc(Oc3c(F)cc(NC(=O)c4cc(F)c(F)cc4OC)cc3F)c2cc1OC
Result: 6.00 to 7.00

Task: Please give the measured pEC50 for this compound: CCCOc1ccncc1C(=O)Nc1cc(F)c(Oc2ccnc3cc(OCCNC)c(OC)cc23)cc1F
Result: 6.00 to 7.00

Task: Given the entry CC(C)(O)COc1ccc2c(Oc3c(F)cc(NC(=O)c4cnccc4OC4CC4)cc3F)ccnc2c1 , report its measured pEC50.
Result: 6.00 to 7.00

Task: Reported pEC50, compound COc1cc(OC2CC2)c(C(=O)Nc2cc(F)c(Oc3ccnc4cc(OCCO)c(OC)cc34)c(F)c2)cn1 : ____
Result: ≥ 7.00

Task: For COc1cc2nccc(Oc3c(F)cc(NC(=O)c4cnccc4OCC(F)F)cc3F)c2cc1OCCO , what is its reported pEC50?
Result: ≥ 7.00

Task: Sample CNCCOc1cc2nccc(Oc3c(F)cc(NC(=O)c4cnccc4OC4CC4)c(F)c3F)c2cc1OC — what was its pEC50?
Result: ≥ 7.00

----------
- Target or system: Ba/F3-TPR-MET cells (Homo sapiens, UniProt P08581)
- Construct: fused on or other part: P12270 (Nucleoprotein TPR)
- Sequence (P08581 whole entry, change not shown, the tested form may be a part): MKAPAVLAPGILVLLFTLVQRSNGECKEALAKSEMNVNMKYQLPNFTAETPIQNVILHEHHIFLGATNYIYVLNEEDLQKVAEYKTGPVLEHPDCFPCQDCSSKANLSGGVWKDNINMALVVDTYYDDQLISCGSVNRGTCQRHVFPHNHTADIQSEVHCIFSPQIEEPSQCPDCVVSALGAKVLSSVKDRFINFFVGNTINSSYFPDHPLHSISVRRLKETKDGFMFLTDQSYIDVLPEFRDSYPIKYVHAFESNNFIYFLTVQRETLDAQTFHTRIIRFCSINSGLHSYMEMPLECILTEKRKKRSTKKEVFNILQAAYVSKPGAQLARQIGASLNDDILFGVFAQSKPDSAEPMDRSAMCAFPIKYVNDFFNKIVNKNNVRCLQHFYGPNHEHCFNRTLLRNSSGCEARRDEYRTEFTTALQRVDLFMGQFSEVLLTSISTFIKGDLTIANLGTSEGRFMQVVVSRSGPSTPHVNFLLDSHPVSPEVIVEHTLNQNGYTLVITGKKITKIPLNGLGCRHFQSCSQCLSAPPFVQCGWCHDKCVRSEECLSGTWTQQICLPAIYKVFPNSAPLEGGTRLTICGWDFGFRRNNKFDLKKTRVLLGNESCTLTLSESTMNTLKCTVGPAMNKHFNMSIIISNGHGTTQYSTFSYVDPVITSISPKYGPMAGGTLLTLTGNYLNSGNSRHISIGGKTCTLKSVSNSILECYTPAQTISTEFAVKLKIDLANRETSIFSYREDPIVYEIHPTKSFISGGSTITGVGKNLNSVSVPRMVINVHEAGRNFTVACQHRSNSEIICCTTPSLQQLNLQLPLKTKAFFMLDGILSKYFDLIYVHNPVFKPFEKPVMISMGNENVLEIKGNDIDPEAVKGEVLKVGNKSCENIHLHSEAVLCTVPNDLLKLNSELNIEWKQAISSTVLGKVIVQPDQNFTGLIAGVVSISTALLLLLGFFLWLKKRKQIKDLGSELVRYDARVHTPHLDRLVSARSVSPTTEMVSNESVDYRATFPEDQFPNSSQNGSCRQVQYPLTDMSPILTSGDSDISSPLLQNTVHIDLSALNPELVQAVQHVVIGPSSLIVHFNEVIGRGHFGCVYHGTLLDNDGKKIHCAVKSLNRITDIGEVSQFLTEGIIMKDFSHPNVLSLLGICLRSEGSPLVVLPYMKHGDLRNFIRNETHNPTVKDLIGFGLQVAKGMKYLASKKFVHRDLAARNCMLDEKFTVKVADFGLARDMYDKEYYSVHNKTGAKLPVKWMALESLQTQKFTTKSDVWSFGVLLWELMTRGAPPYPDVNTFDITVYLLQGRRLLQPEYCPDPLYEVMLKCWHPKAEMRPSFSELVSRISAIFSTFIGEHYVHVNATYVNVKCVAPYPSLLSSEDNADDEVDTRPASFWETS
- Assay summary: CellTiter-Glo Cell Viability Assay, Ba/F3-TPR-MET
- Condition info: 72 hours
Measurement name: EC50

Task: What does the record list as EC50 for CNCCOc1cc2nccc(Oc3cc(F)c(NC(=O)c4c(OC)ccnc4F)cc3F)c2cc1OC ?
Result: 100 to 1000 nM

Task: So what's the measured EC50 for this one? COc1cc2nccc(Oc3c(F)cc(NC(=O)c4cnccc4OC)cc3F)c2cc1OC[C@H](C)O
Result: ≤ 100 nM

Task: What does the data say about its EC50? Entry: CNCCOc1cc2nccc(Oc3c(F)cc(NC(=O)c4cnccc4OC)c(F)c3F)c2cc1OC
Result: ≤ 100 nM

Task: Reported EC50 for COc1cc2nccc(Oc3c(F)cc(NC(=O)c4cnccc4OC4CC4)c(F)c3F)c2cc1OC : what is it?
Result: 100 to 1000 nM

----------
- Target or system: Ba/F3-TPR-MET cells (Homo sapiens)
- Construct: fused on or other part: P12270 (Nucleoprotein TPR)
- Assay summary: CellTiter-Glo Cell Viability Assay, Ba/F3-TPR-MET
- Condition info: 72 hours
Give measured EC50 for each item. Keep answers brief.

Task: What value of EC50 has been recorded for this entry: CNCCOc1cc2nccc(Oc3c(F)cc(NC(=O)c4cnccc4OC)cc3F)c2cc1OC
Result: ≤ 100 nM

Task: Any idea what its EC50 is? The compound is C[C@@H](O)COc1ccc2c(Oc3c(F)cc(NC(=O)c4cnccc4OC4CC4)cc3F)ccnc2c1
Result: 100 to 1000 nM

Task: Item under review: COc1cc2c(Oc3c(F)cc(NC(=O)c4cnccc4OC)cc3F)ccnc2cc1OC(F)(F)F . Reported EC50?
Result: 100 to 1000 nM

Task: Find the recorded EC50 belonging to COCCOc1ccc2c(Oc3c(F)cc(NC(=O)c4cnccc4OC)cc3F)ccnc2c1 and report it.
Result: 100 to 1000 nM

Task: What value of EC50 has been reported for the following compound? CNCCOc1cc2nccc(Oc3c(F)cc(NC(=O)c4cncnc4OC4CC4)cc3F)c2cc1OC
Result: 100 to 1000 nM

Task: EC50 for CNCCOc1cc2nccc(Oc3c(F)cc(NC(=O)c4cnccc4O[C@H]4CCOC4)cc3F)c2cc1OC ?
Result: 100 to 1000 nM

Task: EC50 for CNCCOc1cc2nccc(Oc3c(F)cc(NC(=O)c4cnccc4OCC4CC4)cc3F)c2cc1OC ?
Result: 100 to 1000 nM

Task: Recorded EC50 of CNCCCOc1cc2nccc(Oc3c(F)cc(NC(=O)c4c(OC)ccnc4F)cc3F)c2cc1OC , please.
Result: ≤ 100 nM

----------
- Target or system: Ba/F3-TPR-MET-D1228N cells (Homo sapiens, UniProt P08581, D1228N, cells depend on it)
- Construct: fused on or other part: P12270 (Nucleoprotein TPR)
- Assay summary: CellTiter-Glo Cell Viability Assay, Ba/F3-TPR-MET-D1228N
- Condition info: 72 hours
pEC50: −log10 of the molar value.
Measurement name: pEC50

Task: Requested field: pEC50. Item: CNCCOc1cc2ncnc(Oc3c(F)cc(NC(=O)c4c(OC)ccnc4F)cc3F)c2cc1OC
Result: 6.00 to 7.00

Task: Given the compound COCCOc1ccc2c(Oc3c(F)cc(NC(=O)c4cnccc4OC)cc3F)ccnc2c1 , what is its reported pEC50?
Result: ≥ 7.00

Task: Bench note: what pEC50 did CCOc1ccncc1C(=O)Nc1cc(F)c(Oc2ccnc3cc(OCCCN4CCOCC4)c(OC)cc23)c(F)c1 show?
Result: ≥ 7.00

Task: Which measured pEC50 value corresponds to COc1cc2nccc(Oc3c(F)cc(NC(=O)c4cnccc4OC)cc3F)c2cc1OC[C@@H](C)O ?
Result: ≥ 7.00

Task: Which pEC50 is reported for this compound? CNCCOc1cc2nccc(Oc3c(F)cc(NC(=O)c4cnccc4OCCO)cc3F)c2cc1OC
Result: 6.00 to 7.00

Task: Which pEC50 is listed for CNCCOc1cc2nccc(Oc3c(F)cc(NC(=O)c4cnccc4O[C@H]4CCOC4)cc3F)c2cc1OC ?
Result: 6.00 to 7.00

----------
- Target or system: Ba/F3-TPR-MET-D1228N cells (Homo sapiens, UniProt P08581, D1228N, cells depend on it)
- Construct: fused on or other part: P12270 (Nucleoprotein TPR)
- Assay summary: CellTiter-Glo Cell Viability Assay, Ba/F3-TPR-MET-D1228N
- Condition info: 72 hours
pEC50: −log10 of the molar value.
Measurement name: pEC50

Task: I'd like to know its pEC50. The compound in question is COCCOc1cc2nccc(Oc3c(F)cc(NC(=O)c4cnccc4OC)cc3F)c2nc1OC
Result: ≥ 7.00

Task: Recorded pEC50 of COc1cc2nccc(Oc3c(F)cc(NC(=O)c4cnccc4OC4CC4)cc3F)c2cc1O[C@@H](C)CO , please.
Result: ≥ 7.00

Task: Which measured pEC50 value corresponds to CCCOc1ccncc1C(=O)Nc1ccc(Oc2ccnc3cc(OCCNC)c(OC)cc23)c(F)c1F ?
Result: 6.00 to 7.00

Task: Query (compound): COCCOc1cnc2c(Oc3c(F)cc(NC(=O)c4cnccc4OC)cc3F)ccnc2c1 ; field requested: pEC50
Result: ≥ 7.00

Task: Look up pEC50: COc1cc2c(Oc3cc(F)c(NC(=O)c4cnccc4OC)cc3F)ccnc2cc1OCCCN1CCOCC1
Result: 6.00 to 7.00

Task: // returns reported pEC50 for input COCCOc1cnc2c(Oc3c(F)cc(NC(=O)c4ccccc4F)cc3F)ccnc2c1
Result: ≥ 7.00

Task: I'd like to know its pEC50. The compound in question is CNCCOc1cc2ncnc(Oc3c(F)cc(NC(=O)c4cnccc4OC)cc3F)c2cc1OC
Result: 6.00 to 7.00

Task: Any idea what pEC50 was measured for COc1cc2nccc(Oc3c(F)cc(NC(=O)c4cnccc4OC)cc3F)c2cc1OC1(CO)CC1 ?
Result: ≥ 7.00

Task: So what does the record say about pEC50 for COc1ccncc1C(=O)Nc1cc(F)c(Oc2ccnc3cc(OCC(C)(C)O)ccc23)c(F)c1 ?
Result: 6.00 to 7.00

Task: Find the recorded pEC50 belonging to CNCCOc1cc2nccc(Oc3c(F)cc(NC(=O)c4cnccc4OC[C@H](C)O)cc3F)c2cc1OC and report it.
Result: 6.00 to 7.00

Task: Reported pEC50 for COCCOc1cc2nccc(Oc3c(F)cc(NC(=O)c4cnccc4OC)cc3F)c2cc1OCCOC : what is it?
Result: ≥ 7.00

Task: Given CNCCOc1cc2nccc(Oc3ccc(NC(=O)c4c(OC)ccnc4F)c(F)c3F)c2cc1OC , state its recorded pEC50.
Result: 6.00 to 7.00

Task: Would you mind telling me what pEC50 value was observed for CCCOc1ccncc1C(=O)Nc1cc(F)c(Oc2ccnc3cc(OCCNC)c(OC)cc23)c(F)c1 ?
Result: ≥ 7.00

Task: Recorded pEC50 of CNCCOc1cc2nccc(Oc3ccc(NC(=O)c4cnccc4OC)c(F)c3F)c2cc1OC , please.
Result: 6.00 to 7.00

Task: Sample COc1cc2c(Oc3c(F)cc(NC(=O)c4cnccc4OC4CC4)cc3F)ccnc2cc1OC1CNC1 — what was its pEC50?
Result: 6.00 to 7.00

Task: # query: pEC50 of entry COc1cc2c(Oc3c(F)cc(NC(=O)c4cnccc4OC4CC4)cc3F)ccnc2cc1OC[C@H](C)O
Result: ≥ 7.00
